# Test system: Fibroblast
# assay procedure: Incucyte cell viability with human fibroblast; note: filed as whole numbers so only -1 and 0 and 1 occur
# Type: toxicity, cell-based
# assay conditions: 0 h, 10 µM, compound concentration 10 uM, replicate number 1, timepoint 0 hours
measurement name: Growth Rate

> print(dat)
                                   molecule  observed
1  Cn1c(CNc2cccc(C(=O)NCc3ccccc3C(F)(F)F)c2)nnc1-c1ccncc1         1
2  CCc1ccc(OCc2ccccc2C(=O)Nc2ccc3nc(C)cc(N)c3c2)cc1.Cl         0
3  CC#CC(=O)N1CCC[C@H]1c1nc(-c2ccc(C(=O)Nc3ccccn3)cc2)c2c(N)nccn12 [ACALABRUTINIB]         0
4  Cc1cccc(CN2CCN(C(c3ccccc3)c3ccc(Cl)cc3)CC2)c1.Cl.Cl (stereo not drawn)         0
5  CN1CCN(Cc2ccc(Nc3ncc(Cl)c(Nc4ccccc4S(=O)(=O)N(C)C)n3)cc2)CC1 [DUBERMATINIB]         0
6  CCCSc1nc(N[C@@H]2C[C@H]2c2ccc(F)c(F)c2)c2nnn([C@@H]3C[C@H](OCCO)[C@@H](O)[C@H]3O)c2n1 [TICAGRELOR]         0
7  O=C(N[C@@H](C1CC1)C(F)(F)F)c1cc(-c2cnn3cc(-c4ccc(F)cc4)cnc23)cs1         0
8  S=C=Nc1cccc(NC(=S)NCCCCNC(=S)Nc2cccc(N=C=S)c2)c1         0

###

Examples of compounds with documented Population Healthy Nuclei (%) follow.
# Test system: Fibroblast
# assay procedure: Multiplex assay against human fibroblast
# Type: toxicity, cell-based
# assay conditions: 48 h, 10 µM, compound concentration 10 uM, replicate 1
measurement name: Population Healthy Nuclei (%)

> print(dat)
                            molecule.smiles  tested.target               measurement.name  observed
1  CCCSc1nc(N[C@@H]2C[C@H]2c2ccc(F)c(F)c2)c2nnn([C@@H]3C[C@H](OCCO)[C@@H](O)[C@H]3O)c2n1     Fibroblast  Population Healthy Nuclei (%)        31
2  Cl.O=C(O)c1cc(-c2ccc(C3CCNCC3)cc2)c2ccc(-c3ccc(C(F)(F)F)cc3)cc2c1     Fibroblast  Population Healthy Nuclei (%)        46
3  C[C@]12CC[C@@H]3c4ccc(O)cc4CC[C@H]3[C@@H]1CC[C@@H]2O     Fibroblast  Population Healthy Nuclei (%)        58
4  C#Cc1cccc(Nc2ncnc3cc(OCCOC)c(OCCOC)cc23)c1     Fibroblast  Population Healthy Nuclei (%)        41

###

# Tested on: U2OS
# assay procedure: Multiplex assay against U2OS
# Format: toxicity, cell-based
# assay conditions: human, 24 h, 10 µM, compound concentration 10 uM, replicate 2
Examples of compounds with documented Population Tubulin-Different-Phenotype (%) follow.
measurement name: Population Tubulin-Different-Phenotype (%)

> print(dat)
                                   compound  tested.target  observed
1  Cc1cccc(CN2CCN(C(c3ccccc3)c3ccc(Cl)cc3)CC2)c1.Cl.Cl (centres undefined)           U2OS       45%
2  COc1cc2ncn(-c3cc(OCc4ccccc4C(F)(F)F)c(C(N)=O)s3)c2cc1OC [GW843682X]           U2OS       97%
3  CC(C)Oc1ccccc1C(=O)Nc1ccccc1C(=O)Nc1cccc(S(=O)(=O)C(F)(F)F)c1           U2OS       98%
4  Cc1c[nH]c2nccc(Oc3c(F)cc(Nc4cc(Cl)nc(N)n4)cc3F)c12           U2OS       20%
5  CC(C)c1noc(N2CCC(COc3ccc(-c4ccc(S(C)(=O)=O)cc4)nc3)CC2)n1           U2OS        7%
6  O=c1cc(N2CCOCC2)oc2c(-c3cccc4c3sc3ccccc34)cccc12           U2OS       70%
7  COc1ccccc1CN[C@H]1C2CCN(CC2)[C@H]1C(c1ccccc1)c1ccccc1           U2OS       14%
8  COc1ccc(-c2ccc3ncc4c(c3c2)n(-c2ccc(N3CCNCC3)c(C(F)(F)F)c2)c(=O)n4C)cn1.O=C(O)/C=C\C(=O)O           U2OS       60%
9  CN1CCN(Cc2ccc(Nc3ncc(Cl)c(Nc4ccccc4S(=O)(=O)N(C)C)n3)cc2)CC1           U2OS       65%
